These measurements were taken from ChEMBL document CHEMBL1124302.

- Test system: Mus musculus
- assay_text: Toxicity in mice after 35->45 days at a dose of 133 mg/kg/day; 45/9.5
- Assay type: organism-based
- run_parameters: in vivo, 1080 h
readout: median survival time

INSERT INTO results (smiles_input, value_measured) VALUES
  ('CCCCCCCCCCCCCCCC(=O)OC[C@H](COP(=O)(O)OP(=O)(O)OC[C@H]1O[C@@H](n2ccc(N)nc2=O)[C@@H](O)[C@@H]1O)OC(=O)CCCCCCCCCCCCCCC', '> 45 days');

---

- Test system: Mus musculus
- assay_text: Toxicity in mice after 11-12 days at a dose of 19 and 38 mg/kg/day; 11/9.5
- Format: organism-based
- run_parameters: in vivo
readout: median survival time (days)

INSERT INTO measurements (smiles_input, system, measure_unit, value_measured) VALUES
  ('CCCCCCCCCCCCCCCC(=O)OC[C@@H](COP(=O)(O)O)OC(=O)CCCCCCCCCCCCCCC.Nc1ccn([C@@H]2O[C@H](COP(=O)(O)O)[C@@H](O)[C@@H]2O)c(=O)n1', 'Mus musculus', 'days', 11);

---

- System: Mus musculus
- assay_text: Toxicity in mice after 9-11 days at a dose of 200 mg/kg/day; 10/9.5
- Assay type: organism-based
- run_parameters: in vivo
readout: median survival time (days)

INSERT INTO results (smiles_input, readout, measure_unit, value_measured) VALUES
  ('CCCCCCCCCCCCCCCC(=O)OC[C@H](COP(=O)(O)O)OC(=O)CCCCCCCCCCCCCCC.Nc1ccn([C@@H]2O[C@H](COP(=O)(O)O)[C@@H](O)[C@@H]2O)c(=O)n1', 'median survival time', 'days', 10);

---

- Tested on: Mus musculus
- assay_text: Toxicity in mice after 13-15 days at a dose of 60 mg/kg/day; 14/8.5
- Type: organism-based
- run_parameters: in vivo
readout: median survival time (days)

INSERT INTO assay_data (compound, measure_unit, value_measured) VALUES
  ('Nc1ccn([C@@H]2O[C@H](CO)[C@@H](O)[C@@H]2O)c(=O)n1 [CYTARABINE]', 'days', 14);

---

- Test system: Mus musculus
- assay_text: Toxicity in mice after 9-12 days at a dose of 200 mg/kg/day; 10.5/9.5
- Assay type: organism-based
- run_parameters: in vivo
readout: median survival time (days)

INSERT INTO assay_data (smiles_input, readout, measure_unit, value_measured) VALUES
  ('Nc1ccn([C@@H]2O[C@H](CO)[C@@H](O)[C@@H]2O)c(=O)n1', 'median survival time', 'days', 10.5);

---

- Tested on: Mus musculus
- assay_text: Toxicity in mice after 14-45 days at a dose of 100 mg/kg/day; 37.5/9
- Type: organism-based
- run_parameters: in vivo
readout: median survival time (days)

INSERT INTO results (compound, system, readout, measure_unit, value_measured) VALUES
  ('CCCCCCCCCCCCCCCC(=O)OCC(COP(=O)(O)OP(=O)(O)OC[C@H]1O[C@@H](n2ccc(N)nc2=O)[C@@H](O)[C@@H]1O)OC(=O)CCCCCCCCCCCCCCC (mixture of isomers)', 'Mus musculus', 'median survival time', 'days', 37.5);

---

- Test system: Mus musculus
- assay_text: Toxicity in mice after 7 days at a dose of 200 mg/kg/day; 7/9
- Type: organism-based
- run_parameters: in vivo, 168 h
readout: median survival time

INSERT INTO results (smiles_input, system, readout, value_measured) VALUES
  ('Nc1ccn([C@@H]2O[C@H](CO)[C@@H](O)[C@@H]2O)c(=O)n1', 'Mus musculus', 'median survival time', '7 days');
